Can you tell me kon for the items I'm about to list?
- TARGET: T1, hRET.mFc (human)
- T1 construct: also called dimeric human RET
- TEST: SPR Biacore T200, mAb capture, 37 C
Give bare numbers, in M⁻¹ s⁻¹.

[[record]]
binder = "H4H8066P (antibody, human IgG4, V domains shown, human IgG4 Fc (H4H prefix)) VH: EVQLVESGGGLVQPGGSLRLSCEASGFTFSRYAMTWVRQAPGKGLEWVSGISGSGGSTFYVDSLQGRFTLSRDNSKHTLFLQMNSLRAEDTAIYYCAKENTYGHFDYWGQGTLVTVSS VL: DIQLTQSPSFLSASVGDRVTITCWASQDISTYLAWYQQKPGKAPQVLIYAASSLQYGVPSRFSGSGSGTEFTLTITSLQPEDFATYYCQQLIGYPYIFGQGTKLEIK"
measured_parameter = "kon"
value_measured = 262000

[[record]]
binder = "H4H8045P (antibody, human IgG4, V domains shown, human IgG4 Fc (H4H prefix)) VH: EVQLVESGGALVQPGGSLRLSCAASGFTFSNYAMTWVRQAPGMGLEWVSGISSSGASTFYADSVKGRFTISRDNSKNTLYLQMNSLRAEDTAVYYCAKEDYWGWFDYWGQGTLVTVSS VL: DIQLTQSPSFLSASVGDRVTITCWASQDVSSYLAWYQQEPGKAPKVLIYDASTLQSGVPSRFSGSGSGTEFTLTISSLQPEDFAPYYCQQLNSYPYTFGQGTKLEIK"
measured_parameter = "kon"
value_measured = 459000


Let us move to another entry and its kon.
Query: Look up kon: H4H8060P (antibody, human IgG4, V domains shown, human IgG4 Fc (H4H prefix)) VH: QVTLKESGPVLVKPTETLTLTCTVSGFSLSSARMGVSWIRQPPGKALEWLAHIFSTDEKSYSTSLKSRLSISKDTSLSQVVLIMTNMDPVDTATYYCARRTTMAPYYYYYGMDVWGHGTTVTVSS VL: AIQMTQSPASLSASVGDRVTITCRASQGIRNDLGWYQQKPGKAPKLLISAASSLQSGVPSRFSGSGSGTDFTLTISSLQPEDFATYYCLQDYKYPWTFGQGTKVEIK
Reply: 1.06e+06
